- Tested on: COLO 205 colon
- ASSAY NAME: NCI tumour cell line growth inhibition, 48 h
Each entry below carries its reported TGI.

# MOLECULE, UNIT, LIMIT SIGN, TGI
measured = [
    ("C=CC1CC12C(=O)C1OC2(C)C2C(=O)c3c(O)ccc(O)c3C(=O)C12 (configuration not stated)", "µM", "=", 17),
    ("Cc1c2c[n+](C(C)C)ccc2c(C)c2c1[nH]c1ccccc12", "µM", "=", 6.46),
    ("O=C(CCl)N1c2ccccc2Sc2ccc3ccccc3c21", "µM", "=", 3.14),
    ("N#CCc1ncc(-c2ccc(C(F)(F)F)cc2)c(NC2CCCCCC2)n1", "µM", ">", 10),
    ("COC(=O)/C=C/c1cc(O)c2c(c1)[C@H](C(=O)OC)[C@@H](c1ccc(O)c(O)c1)O2", "µM", "=", 61.6),
    ("COC(=O)C1(F)C(=O)NC(=O)NC1O (configuration not stated)", "µM", ">", 100),
    ("COc1cc(/C=C2\\CN(C)C/C(=C\\c3cc(CN4CCCCC4)c(O)c(OC)c3)C2=O)cc(CN2CCCCC2)c1O", "µM", "=", 3.74),
    ("CC(C)NC(=O)OCc1c(COC(=O)NC(C)C)c(-c2ccc(Cl)cc2)n2c1CCC2", "µM", "=", 17.1),
    ("Cn1cc(-c2cnc3ccc4ccc(CS(=O)(=O)NCc5ccccn5)cc4c(=O)c3c2)cn1", "µM", ">", 55.8),
    ("C1OC1CO[C@@H]1CO[C@H]2[C@@H]1OC[C@H]2OCC1CO1 (some centres not stated)", "µM", ">", 100),
    ("O=c1[nH]cnc2[nH]ncc12", "µM", ">", 5000),
    ("COc1ccc2nc3cc(Cl)ccc3c(NCCCNCCC(C)O)c2c1 (configuration not stated)", "µM", "=", 1.29),
    ("C=CC(=O)N[C@H]1CCOC[C@H]1Nc1ncc2cc(-c3c(Cl)c(OC)cc(OC)c3Cl)ccc2n1", "µM", "=", 29.5),
    ("c1cn2cc(-c3ccc4cn[nH]c4c3)nc(Nc3ccc(N4CCOCC4)cc3)c2n1", "µM", ">", 100),
    ("Oc1[nH]c2ccccc2c1N=Nc1nc(-c2ccc(Cl)c(Cl)c2)cs1", "µM", ">", 100),
    ("O=C1c2c(n(Cc3ccccc3)c(=O)n2Cc2ccccc2)C(=O)N1Cc1ccccc1", "µM", ">", 100),
    ("CCc1ccc2[nH]c(O)c(-c3[nH]c4ccccc4c3N=O)c2c1", "µM", "=", 23.2),
    ("C=C(CC[C@@H](C(=O)O)[C@H]1[C@H](O)C[C@@]2(C)C3=CC[C@@H](C(=C)C)[C@](C)(CCC(=O)O)C3=CC[C@]12C)C(C)C", "µM", "=", 44.3),
    ("Cc1ccc(SC2=CC(=O)c3nc4ccccc4c4ccnc2c34)cc1", "µM", ">", 85.6),
    ("COc1ccccc1/C=N\\N=C(N/N=C/c1ccccc1OC)N/N=C/c1ccccc1OC", "µM", "=", 4.63),
    ("COc1ccccc1C#Cc1ccccc1C#CCCCCCC#Cc1ccccc1C#Cc1ccccc1OC", "µM", ">", 100),
    ("O=C(C(=O)N1CC2C=CC1CC2)c1c[nH]c2ccccc12 (configuration not stated)", "µM", ">", 100),
    ("CCN(CCCl)CCCNc1c2ccccc2nc2ccc(OC)cc12", "µM", "=", 1.12),
    ("O=c1c(C=Nc2ccc([N+](=O)[O-])cc2)c(O)n(-c2ccccc2)c(=O)n1-c1ccccc1", "µM", ">", 100),
    ("Cc1cccc(C2=NC(C)(C)C(C)(C)N=C2c2cccc(C)n2)n1", "µM", ">", 100),
    ("O=c1cc(N2CCCC2)[nH]c(=O)n1-c1cccc(C(F)(F)F)c1", "µM", ">", 100),
    ("Cc1c(C)[n+](=O)c(C)c(C)n1[O-]", "µM", ">", 100),
    ("NC(=O)C(c1ccccc1)N1CCOCC1 (configuration not stated)", "µM", ">", 100),
    ("NC(=O)c1ccc2c(c1)S(=O)(=O)c1ccccc1C2=O", "µM", ">", 100),
    ("O=c1[nH]c(=O)n(Cc2ccccc2CO)cc1Sc1ccccc1", "µM", ">", 100),
    ("O=Nc1ccc2ccccc2c1O", "µM", "=", 16.6),
    ("Cc1cn(CC2=NCC(C)(C)N2)c(=O)[nH]c1=O", "µM", ">", 100),
    ("S=C1Nc2ccc(Cl)cc2C2(c3ccccc3)N3CCN=C3NN12 (configuration not stated)", "µM", ">", 100),
    ("O=C(O)c1cc(N=Cc2ccccc2O)cc(C(=O)O)c1", "µM", ">", 100),
    ("CN1CCN(Cc2ccc(NC(=O)c3ccc(C#Cc4c(N)ncc5ccc(F)cc45)cc3)cc2C(F)(F)F)CC1", "µM", "=", 1.64),
    ("CN1CC(C(=O)C2C(=O)c3ccccc3C2=O)C(=O)C(=O)C(C(=O)C2C(=O)c3ccccc3C2=O)C1 (configuration not stated)", "µM", ">", 100),
    ("C#CC(F)(F)[C@]1(O)CC[C@H]2[C@@H]3CCC4=CC(=O)CCC4=C3[C@@H](c3ccc(C(C)=O)cc3)C[C@@]21C", "µM", "=", 38.6),
]

* * *

- Test system: HOP-92 NSCLC
- ASSAY NAME: NCI tumour cell line growth inhibition, 48 h
Each entry below carries its reported TGI.

# COMPOUND, TGI
records = [
    ("Cc1cc(C)c(O)c(CN(C)Cc2cc(Cl)cc(Cl)c2O)c1", "13.3 µM"),
    ("O=C(CC(=O)N1N=C(N2c3ccccc3Sc3ccccc32)CC1c1ccccc1)Nc1ccc(Cl)cc1 (stereo not given)", "> 100 µM"),
    ("CC(C)c1ccc(/C=C2\\CSCC3=C2NC(=S)NC3c2ccc(C(C)C)cc2)cc1 (stereo not given)", "> 100 µM"),
    ("O=C(O)c1ccc(N/C=C2\\C(=O)c3ccccc3OC2O)cc1O (stereo not given)", "36.5 µg/mL"),
    ("S=C1Nc2ccc(Cl)cc2C2(c3ccccc3)N3CCN=C3NN12 (stereo not given)", "> 100 µM"),
    ("CN(C)Cc1cc(O)c(O)c(CN(C)C)c1", "> 100 µM"),
    ("Cc1ccc2c(O)c(O)cc(NC(C)CCCN)c2n1 (stereo not given)", "> 100 µM"),
    ("CCOC(=O)CNC(=O)C(C)NC(=O)C(NC(=O)CC(c1ncc[nH]1)c1ncc[nH]1)C(C)CC (stereo not given)", "> 100 µM"),
    ("C/C(=N\\N=C(/[Se])N1CC2CCC(CC2)C1)c1ccccn1", "1.18 µM"),
    ("COc1ccccc1NC(=O)C1=C(C)NC(C)=C(C(=O)Nc2ccccc2OC)C1c1ccc(C)cc1", "> 100 µM"),
    ("NCCNc1cccc2ccccc12", "> 100 µM"),
    ("C=CCC1(O)c2cccc(NCCO)c2C(=O)c2c(NCCO)cccc21", "> 100 µM"),
    ("OC1(c2cc3ccccc3s2)CCCCC1", "> 100 µM"),
    ("Fc1ccc(N=NN2CCCC2)cc1", "> 100 µM"),
    ("COc1ccc(-n2c3c(c4c(CN5CCOCC5)c(O)ccc42)CCc2ccccc2C3=O)cc1", "> 100 µM"),
    ("Oc1[nH]c2ccccc2c1N=Nc1nc(-c2ccc(Cl)c(Cl)c2)cs1", "> 100 µM"),
    ("COc1ccc2c(c1)N=C1CSC(c3ccccc3Cl)N1C2 (stereo not given)", "82.5 µM"),
    ("CCCCc1ccc(Nc2ncc3[nH]cnc3n2)cc1", "49.7 µM"),
    ("COC(=O)[C@]12CC[C@@H](C)[C@H](C)[C@@H]1C1=CC[C@@H]3[C@@]4(C)C=C(O)C(=O)[C@@]5(C)COC(=C54)C[C@@]3(C)[C@]1(C)CC2", "28.9 µM"),
    ("CCOC(=O)/C=C(\\C(=O)OCC)n1ccc(N)nc1=O", "> 100 µM"),
    ("c1cn2cc(-c3ccc4cn[nH]c4c3)nc(Nc3ccc(N4CCOCC4)cc3)c2n1", "33.8 µM"),
    ("C=C1C(=O)O[C@H]2[C@H]1CC/C(COC(=O)NCCc1c[nH]c3ccc(OC)cc13)=C\\CC[C@@]1(C)O[C@@H]21", "2.87 µM"),
    ("CC(C)(C)C1(COC(=O)c2ccc(N)cc2)COC1", "> 100 µM"),
    ("CC(=O)CCCCO", "> 100 µM"),
    ("O=C1C=C(Br)c2c(Br)sc(Br)c21", "7.64 µM"),
]
